Biological target: rec-mTSPO Y34F/F100A (Mus musculus, UniProt P50637, F100A/Y34F)
Construct: His tag
Test: [3H]-PK 11195 saturation binding to rec-mTSPO reconstituted in proteoliposomes
Settings: Y34F/F100A; proteoliposomes
Description: Mutations were performed using the QuikChange Site-Directed Mutagenesis kit (Stratagene, France) according to published protocols. In brief, miniprep pET-PBR plasmid double-strand DNA was used as a template. Synthetic oligonucleotide primer pairs containing a point mutation or deletion, each complementary to the opposing strand of the vector, were extended during temperature cycling by pfu DNA polymerase. The nicked vector DNAs containing the desired mutations were then transfected into E. coli. […]
RECORDED_METRIC: Kd (nM)
Answer in nM, number only, no unit symbol.

Prompt: Suppose we examine the molecule CCC(C)N(C)C(=O)c1cc2ccccc2c(-c2ccccc2Cl)n1 (stereo not shown) ; what Kd value has been reported?
Response: 150

----------
Molecular target: rec-mTSPO Y34S (Mus musculus, UniProt P50637, Y34S)
Construct: His tag
Test: [3H]-PK 11195 saturation binding to rec-mTSPO reconstituted in proteoliposomes
RECORDED_METRIC: pKd
Please express pKd as -log10 of the molar concentration.

Prompt: Suppose we examine the compound CCC(C)N(C)C(=O)c1cc2ccccc2c(-c2ccccc2Cl)n1 (stereo not shown) ; what pKd value has been reported?
Response: 7.40

----------
Target: rec-mTSPO F100A (Mus musculus, UniProt P50637, F100A)
Construct: His tag; made in house; host or cells: E. coli
Assay: [3H]-PK 11195 saturation binding to rec-mTSPO reconstituted in proteoliposomes
RECORDED_METRIC: pKd
Please express pKd as -log10 of the molar concentration.

Prompt: Suppose we examine the compound CCC(C)N(C)C(=O)c1cc2ccccc2c(-c2ccccc2Cl)n1 (stereo not shown) ; what pKd value has been reported?
Response: 7.70
